- Assay Protocol: Luciferase activity of purified RLuc mutants (light output integrated over 10 s, luminometer)
- Type: biochemical
- Condition Label: bisdeoxycoelenterazine; relative to native enzyme
Endpoint Label: Activity (relative to RLuc) bdc
# output: bare number, no unit

stdin: State the recorded Activity (relative to RLuc) bdc for this entry: A54P/C124A: RLuc mutant A54P/C124A (protein) MASKVYDPEQRKRMITGPQWWARCKQMNVLDSFINYYDSEKHAENAVIFLHGNPASSYLWRHVVPHIEPVARCIIPDLIGMGKSGKSGNGSYRLLDHYKYLTAWFELLNLPKKIIFVGHDWGAALAFHYSYEHQDKIKAIVHAESVVDVIESWDEWPDIEEDIALIKSEEGEKMVLENNFFVETMLPSKIMRKLEPEEFAAYLEPFKEKGEVRRPTLSWPREIPLVKGGKPDVVQIVRNYNAYLRASDDLPKMFIESDPGFFSNAIVEGAKKFPNTEFVKVKGLHFSQEDAPDEMGKYIKSFVERVLKNEQ
stdout: 0.06
